A collection of molecules and their measured inhibition at 10 µM
Molecular target: recombinant mTOR (Homo sapiens (Human))
Sequence (P42345 1360-2549): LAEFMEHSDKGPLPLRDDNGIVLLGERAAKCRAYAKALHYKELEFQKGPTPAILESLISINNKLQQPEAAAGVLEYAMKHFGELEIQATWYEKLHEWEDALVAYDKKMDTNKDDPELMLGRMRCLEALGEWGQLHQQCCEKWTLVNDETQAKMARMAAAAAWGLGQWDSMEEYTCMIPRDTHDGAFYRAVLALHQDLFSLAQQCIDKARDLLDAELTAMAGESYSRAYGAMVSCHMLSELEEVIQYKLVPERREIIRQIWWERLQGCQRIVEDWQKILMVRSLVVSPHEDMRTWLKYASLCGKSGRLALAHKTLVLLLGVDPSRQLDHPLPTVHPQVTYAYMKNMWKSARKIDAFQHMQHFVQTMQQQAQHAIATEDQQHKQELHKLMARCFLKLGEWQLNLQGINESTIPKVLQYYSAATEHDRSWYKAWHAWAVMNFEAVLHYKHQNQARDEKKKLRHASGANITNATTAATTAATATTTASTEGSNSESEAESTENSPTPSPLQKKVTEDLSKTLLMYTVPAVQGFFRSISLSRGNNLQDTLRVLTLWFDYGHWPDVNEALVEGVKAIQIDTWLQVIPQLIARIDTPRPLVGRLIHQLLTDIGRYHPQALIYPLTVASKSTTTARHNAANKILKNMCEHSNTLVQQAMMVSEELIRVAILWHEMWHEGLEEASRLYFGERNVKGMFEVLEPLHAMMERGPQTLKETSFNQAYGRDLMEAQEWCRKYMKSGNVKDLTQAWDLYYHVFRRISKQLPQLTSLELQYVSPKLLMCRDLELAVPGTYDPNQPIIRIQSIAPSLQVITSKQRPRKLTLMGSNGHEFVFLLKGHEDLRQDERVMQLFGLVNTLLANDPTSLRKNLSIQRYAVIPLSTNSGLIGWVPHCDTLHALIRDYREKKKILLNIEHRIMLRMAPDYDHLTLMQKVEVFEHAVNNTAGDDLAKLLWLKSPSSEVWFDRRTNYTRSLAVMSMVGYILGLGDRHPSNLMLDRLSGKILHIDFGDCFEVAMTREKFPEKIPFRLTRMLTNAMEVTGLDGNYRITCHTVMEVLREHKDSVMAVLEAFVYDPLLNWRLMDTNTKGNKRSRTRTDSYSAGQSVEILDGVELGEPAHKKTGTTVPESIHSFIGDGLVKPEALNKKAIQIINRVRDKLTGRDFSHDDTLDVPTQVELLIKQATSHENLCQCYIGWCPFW
Assay: mTOR kinase assay (33P incorporation into 4EBP1)
Assay type: biochemical
Details: compound at 10 μM, 10 μM ATP
Description: The activity of the compound against mTOR was examined by measuring the incorporation of ^33P from [γ-^33P]-ATP into 4EBP1. […] The ^33P labeled 4EBP1 was transferred onto UniFilter-96 GF/B plate (PerkinElmer) and quantified by Top Count Microplate Scintillation Counter (PerkinElmer). For primary screening of kinase activity inhibition, each test compound was evaluated at 10 M in duplicate. […] The results were analyzed using linear regression software (GraphPad Prism 5; GraphPad Software Inc.). […]
Output spec: scalar in %, unitless text.

• CCOc1c(C(=O)N2CCN(S(C)(=O)=O)CC2)nc(-c2ccc(NC(=O)Nc3ccccc3)cc2)nc1N1CCOCC1 = 100
• CSc1c(-c2ccncc2)nc(-c2ccc(NC(=O)NC(C)C)cc2)nc1N1CCOCC1 = 95
• CCOC(=O)c1nc(-c2ccc(NC(=O)Nc3ccc(F)cc3)cc2)nc(N2CCOCC2)c1OCC = 93
• CSc1c(Cl)nc(-c2ccc(NC(=O)Nc3ccc(C(N)=O)cc3)cc2F)nc1N1CCOCC1 = 93

input: Using the record for COc1cnc(-c2ccc(NC(=O)Nc3ccc(OCCN(C)C)cc3)cc2)nc1N1CCOCC1 , report its inhibition at 10 µM.
output: 94

input: Request: CNC(=O)Nc1ccc(-c2ncc(SC)c(N3CCOCC3)n2)cc1
output: 96

input: Also CCOC(=O)c1nc(-c2ccc(Nc3nc4ccccc4[nH]3)cc2)nc(N2CCOCC2)c1OCC , if possible.
output: 92

input: // same read-out, input: CCOc1c(C(=O)N2CCOCC2)nc(-c2ccc(NC(=O)Nc3ccc(N4CCOCC4=O)cc3)cc2)nc1N1CCOCC1
output: 95

input: How about CCOc1cnc(-c2ccc(NC(=O)Nc3ccc(N4CCSCC4)cc3)cc2)nc1N1CCOCC1 ?
output: 81

input: Now consider CSc1cnc(-c2ccc(NC(=O)Nc3ccc4[nH]c(=O)oc4c3)cc2)nc1N1CCOCC1 .
output: 88

input: Lookup CSc1c(Cl)nc(-c2ccc(NC(=O)Nc3ccccc3)cc2)nc1N1CCOCC1
output: 92

input: Next entry: CSc1c(-c2ccncc2)nc(-c2ccc(NC(=S)Nc3ccccc3)cc2)nc1N1CCOCC1
output: 97

input: Same question, CSc1cnc(-c2ccc(NC(=O)Nc3ccc4c(c3)OCO4)cc2)nc1N1CCOCC1 this time
output: 93

input: Could you do the same for CSc1c(-c2ccncc2)nc(-c2ccc(NC(=O)Nc3ccon3)cc2)nc1N1CCOCC1 , please?
output: 100

input: Do the same for CCOC(=O)c1ccc(NC(=O)Nc2ccc(-c3ncc(SC)c(N4CCOCC4)n3)cc2)cc1 please
output: 86

input: What do you have for COc1cnc(-c2cccc(O)c2)nc1N1CCOCC1 ?
output: 81

input: Follow-up item: CSc1c(-c2ccncc2)nc(-c2ccc(N)cc2)nc1N1CCOCC1
output: 95
